Reference source for all entries: patent US11939314B2

Target: PDGFRalpha(V561D) (Homo sapiens, UniProt P16234, V561D)
Construct: recombinant human PDGFRalpha, amino acids 550end containing the V561 D mutation; 6His (N)
Sequence (P16234 550-1089 V561D): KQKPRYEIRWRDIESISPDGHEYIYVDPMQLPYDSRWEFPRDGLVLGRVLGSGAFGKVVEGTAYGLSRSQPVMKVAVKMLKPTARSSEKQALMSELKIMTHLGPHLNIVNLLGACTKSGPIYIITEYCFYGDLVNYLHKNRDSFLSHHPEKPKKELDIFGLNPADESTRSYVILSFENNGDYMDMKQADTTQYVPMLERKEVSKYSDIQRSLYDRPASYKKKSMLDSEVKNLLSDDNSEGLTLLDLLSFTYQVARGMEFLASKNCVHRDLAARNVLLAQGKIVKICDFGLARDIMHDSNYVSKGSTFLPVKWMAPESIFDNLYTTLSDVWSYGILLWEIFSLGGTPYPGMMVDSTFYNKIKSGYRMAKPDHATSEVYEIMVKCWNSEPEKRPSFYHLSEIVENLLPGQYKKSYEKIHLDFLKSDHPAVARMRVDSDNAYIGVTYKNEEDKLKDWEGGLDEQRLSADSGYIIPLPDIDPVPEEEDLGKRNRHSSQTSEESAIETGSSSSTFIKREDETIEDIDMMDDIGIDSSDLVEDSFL
Assay: PDGFRalpha(V561D) assay
Conditions: recombinant human PDGFRalpha aa 550-end, 200 μM ATP, 1.4E-06 means 1.4×10^−6, read-out: Inhibition (IC50) of PDGFRα (V561D)
What IC50 was measured for each of the following?

INSERT INTO assay_data (compound, target_desc, experimental_result) VALUES
  ('NC(=O)[C@@H]1CCN(C(=O)c2ccc(-n3cc(-c4cc5cc(F)ccc5[nH]c4=O)nn3)cc2)C1 [A226]', 'PDGFRalpha(V561D) (Homo sapiens, UniProt P16234, V561D)', '89 nM');

I need IC50 for every entry listed below, if you could help.
1. NC(=O)[C@H]1CCN(C(=O)c2ccc(-n3cc(-c4cc5cc(F)ccc5[nH]c4=O)nn3)cc2)C1 [A243]
2. CN(C)C1CCN(C(=O)c2ccc(-n3cc(-c4cc5cc(F)c(F)cc5[nH]c4=O)nn3)cc2)CC1 [A171]
3. O=c1[nH]c2cc(F)c(F)cc2cc1-c1cn(-c2ccc(OCCN3CCNCC3)cc2)nn1 [A130]
4. O=C(c1ccc(-n2cc(-c3cc4cc(F)c(F)cc4[nH]c3=O)nn2)cc1)N1CCC(N2CCCC2)C1 (centres unmarked) [A104]
5. COCC1CCN(C(=O)c2ccc(-n3cc(-c4cc5cc(F)c(F)cc5[nH]c4=O)nn3)cc2)C1 (centres unmarked) [A109]
6. O=C(c1ccc(-n2cc(-c3cc4cc(F)ccc4[nH]c3=O)nn2)cc1)N1CCNC[C@@H]1CO [A316]

// result
1: 14 nM; 2: 190 nM; 3: 170 nM; 4: 150 nM; 5: 3.4 nM; 6: 520 nM

I need IC50 for every entry listed below, if you could help.
1. CO[C@H]1CCN(C(=O)c2ccc(-n3cc(-c4cc5cc(F)ccc5[nH]c4=O)nn3)cc2)C1 [A112]
2. CCN(CC)CCNC(=O)c1ccc(-n2cc(-c3cc4cc(F)ccc4[nH]c3=O)nn2)cc1 [A196]
3. CN1CCN(C(=O)COc2ccc(-n3cc(-c4cc5cc(F)c(F)cc5[nH]c4=O)nn3)cc2)CC1 [A167]
4. COC[C@@H]1CCN(C(=O)c2ccc(-n3cc(-c4cc5cc(F)c(F)cc5[nH]c4=O)nn3)cc2)C1 [A200]

// result
1. 64 nM
2. 110 nM
3. 21 nM
4. 140 nM

I need IC50 for every entry listed below, if you could help.
1. N[C@@H]1[C@H]2CN(C(=O)c3ccc(-n4cc(-c5cc6cc(F)ccc6[nH]c5=O)nn4)cc3)C[C@@H]12 [A317]
2. CN1C[C@@H]2CN(C(=O)c3ccc(-n4cc(-c5cc6cc(F)ccc6[nH]c5=O)nn4)cc3)C[C@@H]2C1 [A327]
3. CN1CCN(C(=O)c2ccc(-n3cc(-c4cc5c(F)c(F)ccc5[nH]c4=O)nn3)cc2)CC1 [A156]

// result
1400 nM
220 nM
40 nM

---

Target: c-Kit(V654A) (Homo sapiens, UniProt P10721, V654A)
Construct: amino acids 544-end containing the V654A mutation; GST (N)
Sequence (P10721 544-976 V654A): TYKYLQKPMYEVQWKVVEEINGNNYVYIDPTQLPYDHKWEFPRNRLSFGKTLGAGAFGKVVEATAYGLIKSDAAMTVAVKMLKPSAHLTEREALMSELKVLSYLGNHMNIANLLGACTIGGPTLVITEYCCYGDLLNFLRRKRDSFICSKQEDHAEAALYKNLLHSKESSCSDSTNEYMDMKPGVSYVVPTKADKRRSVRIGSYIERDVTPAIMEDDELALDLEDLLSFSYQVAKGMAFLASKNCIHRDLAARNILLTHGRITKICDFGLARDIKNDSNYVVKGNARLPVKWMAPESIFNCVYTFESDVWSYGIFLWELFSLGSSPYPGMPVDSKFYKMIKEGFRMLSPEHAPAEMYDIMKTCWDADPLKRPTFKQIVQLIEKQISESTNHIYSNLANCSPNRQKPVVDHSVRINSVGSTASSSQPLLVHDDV
Experiment: c-Kit(V654A) assay
Settings: recombinant human c-Kit aa 544-end, 200 μM ATP, 1.4E-06 means 1.4×10^−6, read-out: Inhibition (IC50) of c-KIT (V654A)
measure-name: IC50 (nM)
Numbers only, in nM.

These solved cases illustrate the format of a correct answer.
INSERT INTO results (compound, unit_descriptor, experimental_result) VALUES
  ('O=c1[nH]c2cc(F)c(F)cc2cc1-c1cn(-c2ccc(OCCCN3CCNCC3)cc2)nn1', 'nM', 180),
  ('O=C(c1ccc(-n2cc(-c3cc4cc(F)ccc4[nH]c3=O)nn2)cc1)N1CCC[C@H]1CO', 'nM', 28),
  ('O=C1CNCCN1c1ccc(-n2cc(-c3cc4cc(F)c(F)cc4[nH]c3=O)nn2)cc1', 'nM', 22),
  ('O=C(c1ccc(-n2cc(-c3cc4cc(F)ccc4[nH]c3=O)nn2)cc1)N1CCC(F)(F)C1', 'nM', 17),
  ('CN1CC[C@H](Oc2ccc(-n3cc(-c4cc5cc(F)c(F)cc5[nH]c4=O)nn3)cc2)C1', 'nM', 21),
  ('N#Cc1ccc2cc(-c3cn(-c4ccc(C(=O)N5CCOCC5)cc4)nn3)c(=O)[nH]c2c1', 'nM', 170),
  ('O=C(c1ccc(-n2cc(-c3cc4cc(Cl)ccc4[nH]c3=O)nn2)cc1)N1CC2(COC2)C1', 'nM', 47),
  ('CO[C@@H]1CCN(C(=O)c2cc(-n3cc(-c4cc5cc(F)ccc5[nH]c4=O)nn3)cs2)C1', 'nM', 14),
  ('CN(C)C(=O)c1ccc(-n2cc(-c3cc4cccnc4[nH]c3=O)nn2)cc1', 'nM', 53),
  ('CC(=O)OC1CCCN(C(=O)c2ccc(-n3cc(-c4cc5cc(F)ccc5[nH]c4=O)nn3)cc2)C1 (stereo not drawn)', 'nM', 8.6);

I need IC50 for every entry listed below, if you could help.
1. O=C(c1ccc(-n2cc(-c3cc4ccc(F)cc4[nH]c3=O)nn2)cc1)N1CCNCC1
2. CN1CCN(C(=O)c2ccc(-n3cc(-c4cc5ccc(F)cc5[nH]c4=O)nn3)cc2)CC1
3. O=c1[nH]c2ccc(F)cc2cc1-c1cn(-c2cccc(OCCN3CCOCC3)c2)nn1 [A94a]
4. CO[C@@H]1CCN(C(=O)c2ccc(-n3cc(-c4cc5cc(F)ccc5[nH]c4=O)cn3)cc2)C1
5. CO[C@@H]1C[C@@H](CO)N(C(=O)c2ccc(-n3cc(-c4cc5cc(F)ccc5[nH]c4=O)cn3)cc2)C1
6. CC(=O)OC1CCN(C(=O)c2ccc(-n3cc(-c4cc5cc(F)ccc5[nH]c4=O)nn3)cc2)CC1
7. O=C(c1ccc(-n2cc(-c3cc4cc(F)ccc4[nH]c3=O)nn2)cc1)N1CC[C@@H](O)C1
8. O=c1[nH]c2ccccc2cc1-c1cn(-c2ccc(OCCN3CCCC3)cc2)nn1

// result
1: 28; 2: 16; 3: 60; 4: 41; 5: 43; 6: 11; 7: 8.5; 8: 23

---

Biological target: c-Kit(V654A) (Homo sapiens, UniProt P10721, V654A)
Construct: amino acids 544-end containing the V654A mutation; GST (N)
Experiment: c-Kit(V654A) assay
Type: biochemical
Conditions: recombinant human c-Kit aa 544-end, 200 μM ATP, 1.4E-06 means 1.4×10^−6, read-out: Inhibition (IC50) of c-KIT (V654A)
Description: c-Kit(V654A) (N-terminal GST-tagged, recombinant human c-Kit, amino acids 544-end containing the V654A mutation) is incubated with 8 mM MOPS pH 7.0, 0.2 mM EDTA, 250 μM GGMEDIYEFMGGKKK, 10 mM MgAcetate and [gamma-33P-ATP] (specific activity approx. 500 cpm/pmol, concentration 200 μM). The reaction is initiated by the addition of the MgATP mix. After incubation for 40 minutes at room temperature, the reaction is stopped by the addition of 3% phosphoric acid solution. […]
measure-name: IC50 (nM)
One number for each entry, in nM.

These solved cases illustrate the format of a correct answer.
INSERT INTO assay_data (compound, experimental_result) VALUES
  ('CN(C)C(=O)c1ccc(-n2cc(-c3cc4cc(Cl)cnc4[nH]c3=O)nn2)cc1', 220),
  ('O=C(c1ccc(-n2cc(-c3cc4cncnc4[nH]c3=O)nn2)cc1)N1CCOCC1', 3600);

I need IC50 for every entry listed below, if you could help.
1. CCN(CC)CCN1CCN(C(=O)c2ccc(-n3cc(-c4cc5cc(F)c(F)cc5[nH]c4=O)nn3)cc2)CC1
2. O=c1[nH]c2cc(F)c(F)cc2cc1-c1cn(-c2ccc(OCCC3CCNCC3)cc2)nn1
3. CN1CCN(CC2CCCN2C(=O)c2ccc(-n3cc(-c4cc5cc(F)ccc5[nH]c4=O)nn3)cc2)CC1 (centres unmarked)
4. CN1CC2(CCN(C(=O)c3ccc(-n4cc(-c5cc6cc(F)ccc6[nH]c5=O)nn4)cc3)C2)C1
5. O=C(c1ccc(-n2cc(-c3cc4cc(Cl)ccc4[nH]c3=O)nn2)cc1)N1C[C@H](O)CO1

// result
[110, 17, 25, 25, 30]

// query Give IC50 (c-Kit(V654A) (Homo sapiens, UniProt P10721, V654A)) of the following compound: CN1CCN(C(=O)Cc2ccc(-n3cc(-c4cc5cc(F)c(F)cc5[nH]c4=O)nn3)cc2)CC1
// result 14
